tested-target: c-kit (Homo sapiens)
Construct: human Mo7e cells which endogenously express c-kit; endogenous in cells; host or cells: human Mo7e cells (promegakaryocytic leukemia line), stimulated with human recombinant SCF
experiment-description: Mo7e cell proliferation assay (SCF dependent proliferation)
Format: cell-based
settings: Table 1; human Mo7e cells stimulated with SCF, 48 hours, CellTiter Glo; 1% FBS; read-out: c-kit (Mo7e)
quantity-name: IC50 (nM)

Examples from the recorded data:
compound="Cc1ccn2c(C(=O)Nc3cc(-c4noc(N5CC(C)(O)C5)n4)ccc3C)cnc2c1 [F88]" observed_result=62
compound="Cc1ccc(-c2noc([C@H](C)N3CCC(F)(F)C3)n2)cc1NC(=O)c1cnc2ccccn12 [F51]" observed_result=43

[I] Cc1ccc(-c2noc([C@@H]3CCN3C(=O)OC(C)(C)C)n2)cc1NC(=O)c1cnc2ccccn12 [F24]
[II] Cc1ccc(-c2nc(N3CCC(F)(F)CC3)no2)cc1NC(=O)c1cnc2ccccn12 [F4]
When their IC50 values are compared, which is larger, I or II ? Use the label to indicate which entry you chose. I
(I: 80 nM, II: 35 nM)

---

tested-target: c-kit (Homo sapiens, UniProt P10721)
Construct: human Mo7e cells which endogenously express c-kit; endogenous in cells; host or cells: human Mo7e cells (promegakaryocytic leukemia line), stimulated with human recombinant SCF
Sequence (P10721 26-976): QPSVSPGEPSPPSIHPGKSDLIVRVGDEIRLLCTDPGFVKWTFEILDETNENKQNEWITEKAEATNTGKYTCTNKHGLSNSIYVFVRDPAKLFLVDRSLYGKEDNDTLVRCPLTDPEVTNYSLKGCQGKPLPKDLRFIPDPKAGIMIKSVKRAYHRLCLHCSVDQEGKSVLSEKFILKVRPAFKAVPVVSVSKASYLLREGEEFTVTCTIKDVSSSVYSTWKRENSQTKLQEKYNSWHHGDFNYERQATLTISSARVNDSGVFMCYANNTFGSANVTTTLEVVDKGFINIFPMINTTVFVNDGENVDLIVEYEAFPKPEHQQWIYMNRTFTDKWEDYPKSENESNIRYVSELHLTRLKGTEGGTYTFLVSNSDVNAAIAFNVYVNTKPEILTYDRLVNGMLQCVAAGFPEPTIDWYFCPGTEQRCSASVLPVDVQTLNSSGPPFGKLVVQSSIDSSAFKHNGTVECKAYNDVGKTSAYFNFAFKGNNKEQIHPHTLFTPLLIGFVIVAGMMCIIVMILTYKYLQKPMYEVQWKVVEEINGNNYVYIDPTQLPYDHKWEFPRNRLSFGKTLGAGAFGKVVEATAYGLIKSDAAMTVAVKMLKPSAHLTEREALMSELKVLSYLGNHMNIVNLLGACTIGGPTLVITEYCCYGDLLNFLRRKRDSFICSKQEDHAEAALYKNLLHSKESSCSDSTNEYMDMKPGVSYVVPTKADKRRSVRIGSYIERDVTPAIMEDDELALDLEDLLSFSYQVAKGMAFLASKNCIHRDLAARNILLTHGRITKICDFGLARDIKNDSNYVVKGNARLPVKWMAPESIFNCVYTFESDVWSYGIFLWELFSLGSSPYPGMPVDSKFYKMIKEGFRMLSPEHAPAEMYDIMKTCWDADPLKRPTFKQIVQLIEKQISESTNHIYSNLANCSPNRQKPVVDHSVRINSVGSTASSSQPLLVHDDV
experiment-description: Mo7e cell proliferation assay (SCF dependent proliferation)
Format: cell-based
settings: Table 1; human Mo7e cells stimulated with SCF, 48 hours, CellTiter Glo; 1% FBS; read-out: c-kit (Mo7e)
pIC50: −log10 of the molar value.
quantity-name: pIC50

Examples from the recorded data:
compound="O=C(Nc1cc(-c2noc(CN3CCC(F)(F)C3)n2)ccc1F)c1cnc2ccccn12 [F45]" observed_result=7.05
compound="Cc1ccc(-c2noc(CC3CCCCO3)n2)cc1NC(=O)c1cnc2ccccn12 (centres unmarked) [F44]" observed_result=7.77
compound="Cc1ccc2ncc(C(=O)Nc3cc(-c4noc(NC5CCOCC5)n4)ccc3C)n2c1 [F82]" observed_result=7.26

[P] COC(=O)N1CC(c2nc(-c3ccc(C)c(NC(=O)c4cnc5ccc(COCC(F)F)cn45)c3)no2)C1 [F95]
[Q] Cc1ccc(-c2noc(N3CCC3)n2)cc1NC(=O)c1cnc2ccccn12 [F77]
Given the two records P and Q , choose the one whose pIC50 value is lower. Use the label to indicate which entry you chose. Q

---

tested-target: c-kit (Homo sapiens)
Construct: human Mo7e cells which endogenously express c-kit; endogenous in cells; host or cells: human Mo7e cells (promegakaryocytic leukemia line), stimulated with human recombinant SCF
experiment-description: Mo7e cell proliferation assay (SCF dependent proliferation)
Type: cell-based
settings: Table 2; human Mo7e cells stimulated with SCF, 48 hours, CellTiter Glo; 1% FBS; read-out: c-kit (Mo7e)
quantity-name: IC50 (nM)

Examples from the recorded data:
compound="Cc1ccc(-c2noc(CC3CNC3)n2)cc1NC(=O)c1cnc2ccccn12 [F295]" tested_target="c-kit (Homo sapiens)" unit_spec=nM observed_result=2200
compound="Cc1ccc(-c2noc(C3CN(c4cnccn4)C3)n2)cc1NC(=O)c1cnc2ccccn12 [F243]" tested_target="c-kit (Homo sapiens)" unit_spec=nM observed_result=310
compound="Cc1ccc(-c2noc(N3CCC3)n2)cc1NC(=O)c1cnc2ccccn12 [F248]" tested_target="c-kit (Homo sapiens)" unit_spec=nM observed_result=132

[A] COC(=O)N1CC(Cc2nc(-c3ccc(C)c(NC(=O)c4cnc5ccccn45)c3)no2)C1 [F177]
[B] Cc1ccc(-c2noc(CC3CCN(S(C)(=O)=O)CC3)n2)cc1NC(=O)c1cnc2ccccn12 [F215]
Given the two records A and B , choose the one whose IC50 value is lower. Use the label to indicate which entry you chose. B

[1] Cc1ccc(-c2noc([C@@H]3CC(F)(F)CN3C(=O)OC(C)(C)C)n2)cc1NC(=O)c1cnc2ccccn12 [F120]
[2] COC(=O)N1CC(c2nc(-c3ccc(C)c(NC(=O)c4cnc5c(F)cccn45)c3)no2)C1 [F242]
[3] COC(=O)N1CC(c2nc(-c3ccc(C)c(NC(=O)c4cnc5ccc(CCC(=O)OC(C)(C)C)cn45)c3)no2)C1 [F241]
[4] CC(=O)N1CC(F)(F)C[C@H]1c1nc(-c2ccc(C)c(NC(=O)c3cnc4ccccn34)c2)no1 [F173]
[5] Cc1ccc(-c2noc(CC3CCNC3)n2)cc1NC(=O)c1cnc2ccccn12 (stereo not drawn) [F304]
Reorder the items by IC50, least to greatest. Your reply should list the labels following the order given in the request. 3, 4, 1, 2, 5
